System: Ba/F3 EGFR ASV ins cells
experiment.notes: Cell proliferation, Ba/F3 EGFR ASV ins (CellTiter-Glo, 72 h)
Type: cell-based
reported.conditions: Ba/F3 EGFR, 72 h, Ba/F3 EGFR ASV ins, 72 h proliferation; read-out: EGFR Exon20 ASV insertion GI50
assay.endpoint: GI50 (nM)

a: C=CC(=O)Nc1cc(Nc2ncnc(Nc3cc(F)c(C4CC4)cc3C(C)(C)O)n2)c(OC)cc1N(C)CCN(C)C [Compound 34]
b: C=CC(=O)Nc1cc(Nc2ncc(C(F)(F)F)c(Nc3cc(Cl)c(F)cc3C(C)(C)O)n2)c(OC)cc1N1CC[C@@H](N(C)C)C1 [Compound 84]
c: C=CC(=O)Nc1cc(Nc2nccc(Nc3cc(Cl)c(F)cc3C(C)(C)O)n2)c(OC)cc1N1CC(F)(F)C[C@@H]1CN(C)C [Compound 82]
Query :: Parameters: sort_field (GI50), sort_dir (desc). Rank the items, then write their labels in that order.
Result :: b, c, a
(b: 450 nM, c: 77.7 nM, a: 17.6 nM)

----------
target: human EGFR exon 20 H773_V774insNPH (Homo sapiens, UniProt P00533, INS773NPH)
Sequence (P00533 with tags, fused parts or gaps INS773NPH): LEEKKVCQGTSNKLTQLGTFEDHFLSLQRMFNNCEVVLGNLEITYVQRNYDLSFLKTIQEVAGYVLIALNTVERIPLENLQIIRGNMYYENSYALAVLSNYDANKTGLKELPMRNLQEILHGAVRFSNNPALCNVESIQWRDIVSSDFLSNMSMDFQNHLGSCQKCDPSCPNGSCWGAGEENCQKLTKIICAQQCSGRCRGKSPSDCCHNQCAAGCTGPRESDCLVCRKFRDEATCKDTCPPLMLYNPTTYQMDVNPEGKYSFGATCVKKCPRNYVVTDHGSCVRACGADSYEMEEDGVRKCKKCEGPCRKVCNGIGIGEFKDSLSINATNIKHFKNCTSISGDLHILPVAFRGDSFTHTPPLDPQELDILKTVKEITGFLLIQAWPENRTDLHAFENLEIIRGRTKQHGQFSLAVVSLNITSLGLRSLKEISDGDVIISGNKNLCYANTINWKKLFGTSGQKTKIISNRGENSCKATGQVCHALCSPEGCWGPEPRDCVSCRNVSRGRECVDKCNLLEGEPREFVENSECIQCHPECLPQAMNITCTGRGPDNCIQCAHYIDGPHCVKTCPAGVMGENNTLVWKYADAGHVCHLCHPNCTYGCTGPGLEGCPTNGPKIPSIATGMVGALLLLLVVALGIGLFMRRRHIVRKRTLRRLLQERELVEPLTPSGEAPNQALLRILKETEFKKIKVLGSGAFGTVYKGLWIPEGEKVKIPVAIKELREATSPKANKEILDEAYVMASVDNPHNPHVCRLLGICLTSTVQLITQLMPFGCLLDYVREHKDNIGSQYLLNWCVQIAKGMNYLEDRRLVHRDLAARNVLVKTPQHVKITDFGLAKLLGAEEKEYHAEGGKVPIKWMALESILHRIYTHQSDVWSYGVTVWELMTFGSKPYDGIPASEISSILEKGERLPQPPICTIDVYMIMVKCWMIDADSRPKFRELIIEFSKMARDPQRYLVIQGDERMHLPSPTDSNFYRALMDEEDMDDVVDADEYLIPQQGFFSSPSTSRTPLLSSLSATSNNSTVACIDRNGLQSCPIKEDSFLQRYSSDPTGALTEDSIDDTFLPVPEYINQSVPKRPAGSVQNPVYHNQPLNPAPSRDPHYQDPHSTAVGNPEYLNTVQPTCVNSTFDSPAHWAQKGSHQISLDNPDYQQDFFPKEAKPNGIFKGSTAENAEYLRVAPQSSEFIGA
experiment.notes: EGFR Exon20 NPH insertion cellular phosphorylation inhibition (MSD pEGFR Y1068/total EGFR);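 further: IL3-independent Ba/F3 cells with constitutively phosphorylated EGFR, compound exposure at 37 °C under 5% CO2, electrochemiluminescent MSD measurement of the p-EGFR to total EGFR ratio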
reported.conditions: Ba/F3 EGFR NPH ins cells, 4 h compound, p-EGFR(Y1068)/total EGFR
Structures can show the parent of a compound that is named as a salt.
assay.endpoint: IC50 (nM)

Worked examples, 5 compounds total:
compound | assay.endpoint | output.unit | value.measured
C=CC(=O)Nc1cc(Nc2nccc(Nc3cc(Cl)c(F)cc3C(C)(C)O)n2)c(OC)cc1N1C[C@H]2CN(C)[C@H]2C1 [Compound 89, formic acid salt] | IC50 | nM | 14.8
C=CC(=O)Nc1cc(Nc2ncnc(Nc3cc(Cl)c(F)cc3C(C)(O)CC)n2)c(OC)cc1N1CC[C@@H](N(C)C)C1 (single isomer, unassigned) [Compound 70] | IC50 | nM | 67.5
C=CC(=O)Nc1cc(Nc2nccc(Nc3cc(Cl)c(F)cc3C(C)(C)O)n2)c(OC)cc1N1CC[C@@H](NC)C1 [Compound 80, TFA salt] | IC50 | nM | 95
C=CC(=O)Nc1cc(Nc2ncnc(Nc3cc(Cl)c(F)cc3C(C)(C)O)n2)c(OC)cc1N1CC[C@@H](N(C)C)C1 | IC50 | nM | 14
C=CC(=O)Nc1cc(Nc2nccc(Nc3cc(Cl)c(F)cc3C(C)(C)O)n2)c(OC)cc1N1CC[C@@H](N(C)C)C1 | IC50 | nM | 20.4

1: C=CC(=O)Nc1cc(Nc2ncnc(Nc3cc4cc[nH]c4cc3C(C)(C)O)n2)c(OC)cc1N(C)CCN(C)C
2: C=CC(=O)Nc1cc(Nc2ncnc(Nc3cc(Cl)c(F)cc3C(C)(C)O)n2)c(OC)cc1N(C)CCN1CCC[C@@H]1C
Query :: Given 1 and given 2 , which shows the smaller recorded IC50? Reply briefly: the label of your chosen item.
Result :: 1
(1: 7.1 nM, 2: 35.8 nM)

P: C=CC(=O)Nc1cc(Nc2ncnc(Nc3cc(F)c(C4CC4)cc3C(C)(C)O)n2)c(OC)cc1N1CC[C@@H]2CN(C)C[C@@H]21
Q: C=CC(=O)Nc1cc(Nc2ncnc(Nc3ccccc3C3(O)COC3)n2)c(OC)cc1N(C)CCN(C)C
Query :: Please indicate which item has the smaller measured IC50: P versus Q Respond with the label that goes with your answer.
Result :: P
(P: 2.9 nM, Q: 119 nM)

I: C=CC(=O)Nc1cc(Nc2ncnc(Nc3cc(F)c(F)cc3C(C)(O)CC)n2)c(OC)cc1N1CC[C@@H]2CN(C)C[C@@H]21 (stereo partly shown)
II: C=CC(=O)Nc1cc(Nc2ncnc(Nc3cc(Cl)c(F)cc3C(C)(C)O)n2)c(OC)cc1N(C)C[C@H]1CCCN1C
Query :: When I and II are compared, which has the higher number for IC50? Refer to your chosen item by its label in the answer.
Result :: II
(II: 11.1 nM, I: 5.6 nM)

----------
target: human Her2 exon 20 insertion mutation YVMA (Homo sapiens, UniProt P04626, INS775YVMA)
Sequence (P04626 with tags, fused parts or gaps INS775YVMA): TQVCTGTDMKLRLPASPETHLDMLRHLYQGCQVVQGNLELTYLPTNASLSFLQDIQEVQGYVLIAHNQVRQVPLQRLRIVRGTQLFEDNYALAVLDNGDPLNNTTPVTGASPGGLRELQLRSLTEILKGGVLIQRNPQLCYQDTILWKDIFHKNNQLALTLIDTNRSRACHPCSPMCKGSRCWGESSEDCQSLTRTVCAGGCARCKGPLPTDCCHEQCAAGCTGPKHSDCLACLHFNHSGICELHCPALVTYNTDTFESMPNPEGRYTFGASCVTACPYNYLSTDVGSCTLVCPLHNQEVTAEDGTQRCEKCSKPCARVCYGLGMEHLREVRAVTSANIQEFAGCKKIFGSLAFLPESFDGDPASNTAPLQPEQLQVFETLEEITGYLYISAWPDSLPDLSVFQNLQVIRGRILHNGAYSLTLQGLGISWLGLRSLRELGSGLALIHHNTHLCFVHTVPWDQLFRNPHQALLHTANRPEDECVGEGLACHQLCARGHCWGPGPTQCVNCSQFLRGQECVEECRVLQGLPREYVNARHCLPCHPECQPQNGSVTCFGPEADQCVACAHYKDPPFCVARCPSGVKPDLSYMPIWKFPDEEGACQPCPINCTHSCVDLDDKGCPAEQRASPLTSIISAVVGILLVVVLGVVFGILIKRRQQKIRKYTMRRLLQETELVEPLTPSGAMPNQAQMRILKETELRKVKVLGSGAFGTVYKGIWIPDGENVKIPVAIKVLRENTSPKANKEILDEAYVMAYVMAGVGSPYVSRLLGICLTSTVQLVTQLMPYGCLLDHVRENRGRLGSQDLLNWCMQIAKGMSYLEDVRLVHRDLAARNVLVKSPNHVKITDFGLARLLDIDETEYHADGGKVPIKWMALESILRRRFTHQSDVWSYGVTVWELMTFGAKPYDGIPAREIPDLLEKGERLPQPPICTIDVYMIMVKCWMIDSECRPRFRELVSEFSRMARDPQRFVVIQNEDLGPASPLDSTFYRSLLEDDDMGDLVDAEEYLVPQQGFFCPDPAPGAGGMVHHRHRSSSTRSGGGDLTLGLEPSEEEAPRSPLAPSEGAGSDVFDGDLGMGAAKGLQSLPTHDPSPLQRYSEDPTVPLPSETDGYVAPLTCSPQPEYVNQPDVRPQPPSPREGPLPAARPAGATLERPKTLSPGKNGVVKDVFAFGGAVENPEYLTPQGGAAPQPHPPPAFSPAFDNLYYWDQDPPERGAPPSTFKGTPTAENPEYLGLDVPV
experiment.notes: Her2 Exon 20 YVMA insertion cellular phosphorylation inhibition (MSD p-Her2 Y1248/total Her2);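 further: lentivirally transduced NIH-3T3 cells in 1% FBS medium, electrochemiluminescent MSD read-out, graded compound concentrations at 37 °C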
reported.conditions: Her2 YVMAins cells, 4 h compound
assay.endpoint: IC50 (nM)

Look over these answered cases.
compound | target | output.unit | IC50
C=CC(=O)Nc1cc(Nc2nccc(Nc3cc(Cl)c(F)cc3C(C)(C)O)n2)c(OC)cc1N1C[C@@H](F)[C@@H](N(C)C)C1 | human Her2 exon 20 insertion mutation YVMA (Homo sapiens, UniProt P04626, INS775YVMA) | nM | 18.8
C=CC(=O)Nc1cc(Nc2ncnc(Nc3ccc(C)nc3C(C)(C)O)n2)c(OC)cc1N(C)CCN(C)C | human Her2 exon 20 insertion mutation YVMA (Homo sapiens, UniProt P04626, INS775YVMA) | nM | 19.7
C=CC(=O)Nc1cc(Nc2ncnc(Nc3cc(Cl)c(F)cc3C(C)(C)O)n2)c(OC)cc1N1CC[C@@H]2CN(C)C[C@@H]21 | human Her2 exon 20 insertion mutation YVMA (Homo sapiens, UniProt P04626, INS775YVMA) | nM | 15.2

P: C=CC(=O)Nc1cc(Nc2nccc(Nc3cc(Cl)c(F)cc3C(C)(C)O)n2)c(OC)cc1N1CC[C@H](N(C)C)C1
Q: C=CC(=O)Nc1cc(Nc2ncnc(Nc3cc(F)c(F)cc3C(C)(C)O)n2)c(OC)cc1N1CCC[C@@H]1CN(C)C
Query :: Please state the entry with greater IC50 among P and Q . Kindly state the label of the option you pick.
Result :: P
(P: 21.2 nM, Q: 1.7 nM)

----------
Test system: NCI-H1975 EGFR L858R/T790M cells
experiment.notes: Cell proliferation, NCI-H1975 EGFR L858R/T790M (CellTiter-Glo, 72 h);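 further: viable cells quantified by luciferase-based ATP luminescence, proliferation expressed relative to DMSO-treated wells (100%) after subtracting a parallel plate read at the time of dosing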
Format: cell-based
reported.conditions: Homo sapiens, NCI-H1975, 72 h, NCI-H1975, 72 h proliferation; read-out: EGFR L858R and T790M mutation GI50
assay.endpoint: GI50 (µM)

1: C=CC(=O)Nc1cc(Nc2ncnc(Nc3cc(Cl)c(F)cc3C(C)(O)CC)n2)c(OC)cc1N1CCC[C@H]1CN(C)C (stereo partly drawn) [Compound 64]
2: C=CC(=O)Nc1cc(Nc2ncc(Cl)c(Nc3cc(Cl)c(F)cc3C(C)(C)O)n2)c(OC)cc1N1CC[C@@H](N(C)C)C1 [Compound 74]
3: Cc1cc(C(=O)Nc2nc3cccc(Cl)c3n2[C@@H]2CCCCN(C(=O)/C=C/CN(C)C)C2)ccn1 [EGF816, reference compound]
Query :: Order required: smallest reported GI50 first, largest last, for all compounds above. Provide the ranking by listing each label in its place in the requested order.
Result :: 2, 1, 3
(2: 0.006 µM, 1: 0.0242 µM, 3: 0.0425 µM)

----------
Test system: Ba/F3 EGFR ASV ins cells
experiment.notes: Cell proliferation, Ba/F3 EGFR ASV ins (CellTiter-Glo, 72 h)
Assay type: cell-based
reported.conditions: Ba/F3 EGFR, 72 h, Ba/F3 EGFR ASV ins, 72 h proliferation; read-out: EGFR Exon20 ASV insertion GI50
assay.endpoint: GI50 (nM)

# annotated cases, reported GI50 shown
compound | assay.endpoint | output.unit | value.measured
C=CC(=O)Nc1cc(Nc2ncnc(Nc3cc(Cl)c(F)cc3C(C)(C)O)n2)c(OC)cc1N1CC[C@@H]2CN(C)C[C@@H]21 | GI50 | nM | 58.2
C=CC(=O)Nc1cc(Nc2ncnc(Nc3cc(F)c(Cl)cc3C(C)(C)O)n2)c(OC)cc1N(C)CCN(C)C | GI50 | nM | 25.3

I: C=CC(=O)Nc1cc(Nc2ncnc(Nc3ccc(C)nc3C(C)(C)O)n2)c(OC)cc1N(C)CCN(C)C
II: C=CC(=O)Nc1cc(Nc2ncnc(Nc3cc(Cl)c(F)cc3C(C)(C)O)n2)c(OC)cc1N1CC[C@@H]1CN(C)C
Query :: Problem: Given the entries I and II , determine which has the lower reported GI50. Select an item and report its label.
Result :: II
(II: 46.2 nM, I: 145 nM)

a: C=CC(=O)Nc1cc(Nc2ncnc(Nc3ccccc3C(C)(O)C(F)(F)F)n2)c(OC)cc1N(C)CCN(C)C (stereo not shown)
b: C=CC(=O)Nc1cc(Nc2ncc(OC)c(Nc3cc(Cl)c(F)cc3C(C)(C)O)n2)c(OC)cc1N(C)CCN(C)C
Query :: I would appreciate it if you could say which entry, a or b , has the lower GI50 value. Mark your selection by writing its label.
Result :: a
(a: 25.4 nM, b: 149 nM)

----------
Tested on: Ba/F3 EGFR ASV ins cells
experiment.notes: Cell proliferation, Ba/F3 EGFR ASV ins (CellTiter-Glo, 72 h);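 further: IL3-independent Ba/F3 cells transduced with EGFR V769_D770insASV, cellular ATP luminescence after compound exposure, growth relative to DMSO control with the day-0 baseline reading subtracted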
Assay type: cell-based
reported.conditions: Ba/F3 EGFR, 72 h, Ba/F3 EGFR ASV ins, 72 h proliferation; read-out: EGFR Exon20 ASV insertion GI50
assay.endpoint: GI50 (nM)

substance.smiles | GI50 (nM)
C=CC(=O)Nc1cc(Nc2ncnc(Nc3cc(F)c(F)cc3C(C)(C)O)n2)c(OC)cc1N1CC[C@@H](N(C)C)C1 | 64.7

I: C=CC(=O)Nc1cc(Nc2nccc(Nc3cc(Cl)c(Cl)cc3C(C)(C)O)n2)c(OC)cc1N1CC[C@@H](N(C)C)C1
II: C=CC(=O)Nc1cc(Nc2ncnc(Nc3cc(Cl)c(F)cc3C(C)(C)O)n2)c(OC)cc1N1C[C@@H](F)[C@@H](N(C)C)C1
Query :: Field: lower GI50 | Options: I / II Refer to your chosen item by its label in the answer.
Result :: I
(I: 46.1 nM, II: 83.2 nM)
